Values were extracted from BindingDB's records for doi:10.1016/j.bioorg.2016.12.008.

# MEASURED_ON: Prostaglandin G/H synthase 2 (Ovis aries, UniProt P79208)
# Sequence (P79208 whole entry): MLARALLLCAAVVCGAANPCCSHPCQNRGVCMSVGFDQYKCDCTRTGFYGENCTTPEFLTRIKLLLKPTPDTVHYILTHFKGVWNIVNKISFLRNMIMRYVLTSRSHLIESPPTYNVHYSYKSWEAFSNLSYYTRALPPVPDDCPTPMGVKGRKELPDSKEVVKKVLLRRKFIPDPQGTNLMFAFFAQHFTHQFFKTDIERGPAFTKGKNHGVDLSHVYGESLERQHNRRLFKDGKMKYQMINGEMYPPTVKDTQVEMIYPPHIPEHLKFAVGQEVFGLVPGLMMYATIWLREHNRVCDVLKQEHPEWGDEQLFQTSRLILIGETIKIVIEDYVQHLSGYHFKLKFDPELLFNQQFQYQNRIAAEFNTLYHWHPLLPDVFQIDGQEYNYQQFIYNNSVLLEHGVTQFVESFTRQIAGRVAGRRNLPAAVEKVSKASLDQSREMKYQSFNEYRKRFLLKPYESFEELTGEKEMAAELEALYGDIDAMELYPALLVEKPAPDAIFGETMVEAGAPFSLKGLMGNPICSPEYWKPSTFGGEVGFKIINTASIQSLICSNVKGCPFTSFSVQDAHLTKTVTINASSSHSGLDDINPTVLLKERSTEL
Category key, based on recorded IC50: L (below 2 µM), M (2 µM to below 4 µM), H (4 µM or more)

Categorize the following entry: CC(C)Cc1ccc(-c2cc(-c3ccco3)c(C#N)c(=O)[nH]2)cc1
L

Categorize the following entry: Cc1ccc(C2CC(c3ccc(NS(C)(=O)=O)cc3)=NN2c2ccc(S(N)(=O)=O)cc2)cc1 (stereo not drawn)
H

Categorize the following entry: CS(=O)(=O)Nc1ccc(-c2cc(-c3ccc(F)cc3)c(C#N)c(=O)[nH]2)cc1
M

Categorize the following entry: N#Cc1c(-c2ccc(Cl)cc2)cc(-c2ccc([N+](=O)[O-])cc2)[nH]c1=O
H

Categorize the following entry: CS(=O)(=O)Nc1ccc(C2=NN(c3ccc(S(N)(=O)=O)cc3)C(c3ccco3)C2)cc1 (stereo not drawn)
M
